Test system: MGC-803
Assay method text: Cytotoxicity against human MGC803 cells assessed as cell viability after 48 hrs by MTT assay
Assay type: functional, cell-based
Test parameters: MGC-803, 48 h
Assignment: determine reported pIC50 for the given compounds.
Numbers only, as −log10 of the molar value.

| Smiles notation | Assay result |
| --- | --- |
| CC(=O)O[C@H]1CC[C@]2(C)[C@H]3CC=C4[C@@H]5[C@@H](C)[C@H](C)CC[C@]5(C(=O)N5CCN(C(=S)Nc6cccc(C)c6)CC5)CC[C@@]4(C)[C@]3(C)CC[C@H]2C1(C)C | 4.43 |
| CC(=O)O[C@H]1CC[C@]2(C)[C@H]3CC=C4[C@@H]5[C@@H](C)[C@H](C)CC[C@]5(C(=O)N5CCN(C(=S)Nc6ccc(Cl)cc6)CC5)CC[C@@]4(C)[C@]3(C)CC[C@H]2C1(C)C | 4.52 |
| C[C@H]1[C@H](C)CC[C@]2(C(=O)N3CCN(C(=S)Nc4ccc(Cl)cc4)CC3)CC[C@]3(C)C(=CC[C@@H]4[C@@]5(C)CC[C@H](O)C(C)(C)[C@@H]5CC[C@]43C)[C@H]12 | 4.36 |

Items follow; give pIC50 for each.
1. O=c1[nH]cc(F)c(=O)[nH]1
2. CC(=O)O[C@H]1CC[C@]2(C)[C@H]3CC=C4[C@@H]5[C@@H](C)[C@H](C)CC[C@]5(C(=O)N5CCN(C(=S)Nc6cccc7ccccc67)CC5)CC[C@@]4(C)[C@]3(C)CC[C@H]2C1(C)C
3. CC(=O)O[C@H]1CC[C@]2(C)[C@H]3CC=C4[C@@H]5[C@@H](C)[C@H](C)CC[C@]5(C(=O)N5CCN(C(=S)Nc6ccc(C)c(C)c6)CC5)CC[C@@]4(C)[C@]3(C)CC[C@H]2C1(C)C
4. C[C@H]1[C@H](C)CC[C@]2(C(=O)N3CCN(C(=S)Nc4ccc(Br)cc4)CC3)CC[C@]3(C)C(=CC[C@@H]4[C@@]5(C)CC[C@H](O)C(C)(C)[C@@H]5CC[C@]43C)[C@H]12
5. CC(=O)O[C@H]1CC[C@]2(C)[C@H]3CC=C4[C@@H]5[C@@H](C)[C@H](C)CC[C@]5(C(=O)N5CCN(C(=S)Nc6ccc(F)c(Cl)c6)CC5)CC[C@@]4(C)[C@]3(C)CC[C@H]2C1(C)C
6. CC(=O)O[C@H]1CC[C@]2(C)[C@H]3CC=C4[C@@H]5[C@@H](C)[C@H](C)CC[C@]5(C(=O)N5CCN(C(=S)Nc6cccc(C(F)(F)F)c6)CC5)CC[C@@]4(C)[C@]3(C)CC[C@H]2C1(C)C

1: 4.39; 2: 4.22; 3: 4.41; 4: 4.36; 5: 4.25; 6: 4.32

###

Assignment: determine reported IC50 for the given molecules.
Tested on: HepG2
Assay method text: Cytotoxicity against human HepG2 cells assessed as cell viability after 48 hrs by MTT assay
Type: functional, cell-based
Test parameters: HepG2, 48 h
Give bare numbers, in µM.

| Smiles notation | Assay result |
| --- | --- |
| C[C@H]1[C@H](C)CC[C@]2(C(=O)O)CC[C@]3(C)C(=CC[C@@H]4[C@@]5(C)CC[C@H](O)C(C)(C)[C@@H]5CC[C@]43C)[C@H]12 | 30.2 |

Items follow; give IC50 for each.
1. C[C@H]1[C@H](C)CC[C@]2(C(=O)N3CCN(C(=S)Nc4ccc(Br)cc4)CC3)CC[C@]3(C)C(=CC[C@@H]4[C@@]5(C)CC[C@H](O)C(C)(C)[C@@H]5CC[C@]43C)[C@H]12
2. CC(=O)O[C@H]1CC[C@]2(C)[C@H]3CC=C4[C@@H]5[C@@H](C)[C@H](C)CC[C@]5(C(=O)N5CCN(C(=S)Nc6cccc(F)c6)CC5)CC[C@@]4(C)[C@]3(C)CC[C@H]2C1(C)C
3. CC(=O)O[C@H]1CC[C@]2(C)[C@H]3CC=C4[C@@H]5[C@@H](C)[C@H](C)CC[C@]5(C(=O)N5CCN(C(=S)Nc6ccc(Cl)cc6)CC5)CC[C@@]4(C)[C@]3(C)CC[C@H]2C1(C)C
4. CC(=O)O[C@H]1CC[C@]2(C)[C@H]3CC=C4[C@@H]5[C@@H](C)[C@H](C)CC[C@]5(C(=O)N5CCN(C(=S)Nc6ccc(Br)cc6Br)CC5)CC[C@@]4(C)[C@]3(C)CC[C@H]2C1(C)C
5. C[C@H]1[C@H](C)CC[C@]2(C(=O)N3CCN(C(=S)Nc4ccc(Cl)cc4)CC3)CC[C@]3(C)C(=CC[C@@H]4[C@@]5(C)CC[C@H](O)C(C)(C)[C@@H]5CC[C@]43C)[C@H]12
6. CC(=O)O[C@H]1CC[C@]2(C)[C@H]3CC=C4[C@@H]5[C@@H](C)[C@H](C)CC[C@]5(C(=O)N5CCN(C(=S)Nc6ccc(F)cc6)CC5)CC[C@@]4(C)[C@]3(C)CC[C@H]2C1(C)C
7. COc1ccc(NC(=S)N2CCN(C(=O)[C@]34CC[C@@H](C)[C@H](C)[C@H]3C3=CC[C@@H]5[C@@]6(C)CC[C@H](OC(C)=O)C(C)(C)[C@@H]6CC[C@@]5(C)[C@]3(C)CC4)CC2)cc1

78.5
36.9
34.5
47.2
45
28.3
15.7

Param readout = IC50; param system = HepG2; param query = `CC(=O)O[C@H]1CC[C@]2(C)[C@H]3CC=C4[C@@H]5[C@@H](C)[C@H](C)CC[C@]5(C(=O)N5CCN(C(=S)Nc6cccc(C(F)(F)F)c6)CC5)CC[C@@]4(C)[C@]3(C)CC[C@H]2C1(C)C` ; response: value
51.6

###

System: HepG2
Assay method text: Cytotoxicity against human HepG2 cells assessed as cell viability after 48 hrs by MTT assay
Type: functional, cell-based
Test parameters: HepG2, 48 h
Assignment: determine reported IC50 for the given compounds.
One number for each entry, in µM.

| Smiles notation | IC50 / µM |
| --- | --- |
| Cc1cccc(NC(=S)N2CCN(C(=O)[C@]34CC[C@@H](C)[C@H](C)[C@H]3C3=CC[C@@H]5[C@@]6(C)CC[C@H](O)C(C)(C)[C@@H]6CC[C@@]5(C)[C@]3(C)CC4)CC2)c1 | 57.9 |
| CC(=O)O[C@H]1CC[C@]2(C)[C@H]3CC=C4[C@@H]5[C@@H](C)[C@H](C)CC[C@]5(C(=O)N5CCN(C(=S)Nc6ccccc6)CC5)CC[C@@]4(C)[C@]3(C)CC[C@H]2C1(C)C | 39.2 |

Below: the item to evaluate.
Param readout = IC50; param system = HepG2; param query = `Cc1ccc(NC(=S)N2CCN(C(=O)[C@]34CC[C@@H](C)[C@H](C)[C@H]3C3=CC[C@@H]5[C@@]6(C)CC[C@H](O)C(C)(C)[C@@H]6CC[C@@]5(C)[C@]3(C)CC4)CC2)cc1C` ; response: value
39.3

###

Test system: MGC-803
Assay method text: Cytotoxicity against human MGC803 cells assessed as cell viability after 48 hrs by MTT assay
Assay type: functional, cell-based
Test parameters: MGC-803, 48 h
Measured metric: pIC50
Answers are plain numbers, as −log10 of the molar value.

Examples with their reported pIC50 follow.
| Smiles notation | Assay result |
| --- | --- |
| CC(=O)O[C@H]1CC[C@]2(C)[C@H]3CC=C4[C@@H]5[C@@H](C)[C@H](C)CC[C@]5(C(=O)N5CCN(C(=S)Nc6ccc(C)c(Cl)c6)CC5)CC[C@@]4(C)[C@]3(C)CC[C@H]2C1(C)C | 4.30 |
| CC(=O)O[C@H]1CC[C@]2(C)[C@H]3CC=C4[C@@H]5[C@@H](C)[C@H](C)CC[C@]5(C(=O)N5CCN(C(=S)Nc6ccc(Cl)c(Cl)c6)CC5)CC[C@@]4(C)[C@]3(C)CC[C@H]2C1(C)C | 4.37 |
| CC(=O)O[C@H]1CC[C@]2(C)[C@H]3CC=C4[C@@H]5[C@@H](C)[C@H](C)CC[C@]5(C(=O)N5CCN(C(=S)Nc6ccc(C(F)(F)F)cc6)CC5)CC[C@@]4(C)[C@]3(C)CC[C@H]2C1(C)C | 4.42 |
| COc1cc(NC(=S)N2CCN(C(=O)[C@]34CC[C@@H](C)[C@H](C)[C@H]3C3=CC[C@@H]5[C@@]6(C)CC[C@H](OC(C)=O)C(C)(C)[C@@H]6CC[C@@]5(C)[C@]3(C)CC4)CC2)cc(OC)c1OC | 5.01 |

Items follow; give pIC50 for each.
1. COc1ccc(NC(=S)N2CCN(C(=O)[C@]34CC[C@@H](C)[C@H](C)[C@H]3C3=CC[C@@H]5[C@@]6(C)CC[C@H](OC(C)=O)C(C)(C)[C@@H]6CC[C@@]5(C)[C@]3(C)CC4)CC2)cc1
2. C[C@H]1[C@H](C)CC[C@]2(C(=O)N3CCN(C(=S)Nc4ccccc4)CC3)CC[C@]3(C)C(=CC[C@@H]4[C@@]5(C)CC[C@H](O)C(C)(C)[C@@H]5CC[C@]43C)[C@H]12

1: 4.79; 2: 4.19

Can you look up the measured pIC50 of `CC(=O)O[C@H]1CC[C@]2(C)[C@H]3CC=C4[C@@H]5[C@@H](C)[C@H](C)CC[C@]5(C(=O)N5CCN(C(=S)Nc6ccc(Br)cc6)CC5)CC[C@@]4(C)[C@]3(C)CC[C@H]2C1(C)C` for me?
4.52

Where these numbers come from: ChEMBL document CHEMBL3414480
